The origin of these recorded values is patent US20060069132A1.

Entries and their Plant response rating, Foxtail, Giant
tested on: giant foxtail; experiment: Test B pre-/postemergence herbicide test; type: in vivo, Setaria faberi; details: 500 g ai/ha; visual rating 0-100, 0 no effect, 100 complete control; preemergence
QUANTITY_MEASURED: Plant response rating, Foxtail, Giant

- CPD_SMILES: "CCOC(=O)c1cc(N(C(C)=O)C(=O)c2cc(C(C)(C)C)nn2CC)ccc1C"
  EXPERIMENTAL_TARGET: "giant foxtail"
  ASSAY_VALUE: 20
- CPD_SMILES: "CC(=NO)c1cccc(NC(=O)c2sc(C(C)(C)C)nc2C)c1"
  EXPERIMENTAL_TARGET: "giant foxtail"
  ASSAY_VALUE: 60
- CPD_SMILES: "CCc1nc(C(C)(C)C)sc1C(=O)Nc1cccc(C(=O)NCC(C)C)c1"
  EXPERIMENTAL_TARGET: "giant foxtail"
  ASSAY_VALUE: 50
- CPD_SMILES: "CCNC(=O)c1cccc(NC(=O)c2sc(C(C)(C)C)nc2C)c1"
  EXPERIMENTAL_TARGET: "giant foxtail"
  ASSAY_VALUE: 100
- CPD_SMILES: "CCN(CC)C(=O)c1cccc(NC(=O)c2nn(C(C)(C)C)cc2C(F)(F)F)c1"
  EXPERIMENTAL_TARGET: "giant foxtail"
  ASSAY_VALUE: 10
- CPD_SMILES: "C=Cn1nc(C(C)(C)C)cc1C(=O)Nc1cccc(C(C)=NO)c1"
  EXPERIMENTAL_TARGET: "giant foxtail"
  ASSAY_VALUE: 90
- CPD_SMILES: "CCOC(=O)c1cccc(NC(=O)c2cn(C(C)(C)C)nc2CC)c1"
  EXPERIMENTAL_TARGET: "giant foxtail"
  ASSAY_VALUE: 10

----------
test system: morningglory; assay: Test B pre-/postemergence herbicide test; assay type: in vivo, Ipomoea coccinea; settings: Postemergence, 500 g ai/ha; scale 0 (no effect) to 100 (complete control)
The label depends only on Morningglory plant response rating: true (1) if it is at least 60, false (0) if it is smaller.

- CPD_SMILES: "CCN(CC)C(=O)c1ccnc(NC(=O)c2nn(C(C)(C)C)nc2C)c1"
  ANSWER_LABEL: "true (1)"
- CPD_SMILES: "CCNC(=O)c1ccnc(NC(=O)c2nn(C(C)(C)C)nc2C)c1"
  ANSWER_LABEL: "true (1)"
- CPD_SMILES: "CCNC(=O)c1cccc(NC(=O)c2nn(C(C)(C)C)nc2Br)c1"
  ANSWER_LABEL: "true (1)"
- CPD_SMILES: "CCOC(=O)c1cccc(NC(=O)c2nn(C(C)(C)C)nc2Br)c1"
  ANSWER_LABEL: "false (0)"
- CPD_SMILES: "CCNC(=O)c1ccc(F)c(NC(=O)c2nn(C(C)(C)CC)nc2CC)c1"
  ANSWER_LABEL: "false (0)"

----------
test system: cocklebur; assay: Test B pre-/postemergence herbicide test; format: in vivo, Xanthium strumarium; settings: 125 g ai/ha; 0 = no effect, 100 = complete control; preemergence
QUANTITY_MEASURED: Cocklebur plant response rating (0 to 100 scale)

- COMPOUND: "CCc1nc(C(C)(C)C)sc1C(=O)Nc1cccc(C(=O)N(C)C)c1 [Compound 228]"
  ASSAY_VALUE: 30
- COMPOUND: "CCc1nn(C(C)(C)C)cc1C(=O)Nc1cc(C(=O)N(C)C)ccn1 [Compound 293]"
  ASSAY_VALUE: 60
- COMPOUND: "CCc1nc(C(C)(C)C)sc1C(=O)Nc1cccc(C(=O)NCC(C)C)c1 [Compound 211]"
  ASSAY_VALUE: 0
- COMPOUND: "CCN(CC)C(=O)c1cccc(NC(=O)c2nn(C(C)(C)C)cc2C(F)(F)F)c1 [Compound 169]"
  ASSAY_VALUE: 0
- COMPOUND: "CCc1nn(C(C)(C)C)cc1C(=O)Nc1cc(C(=O)N(CC)CC)ccc1F [Compound 223]"
  ASSAY_VALUE: 0
